# target-system: Amine oxidase [flavin-containing] A (Rattus norvegicus, UniProt P21396)
# assay-explanation: Inhibition of Monoamine oxidase A (MAO A) in rat brain at 1 uM
# Format: tissue-based
inhibition at 1 µM values for the compounds below.
Express your answer in %, writing the number without its unit.

[[record]]
compound = "CCc1cccc2c1S(=O)(=O)c1cc(C(=O)NC)ccc1C2=O"
target_system = "Amine oxidase [flavin-containing] A (Rattus norvegicus, UniProt P21396)"
unit_info = "%"
measurement = 44


Ask | Could you tell me which inhibition at 1 µM is on file for CNC(=N)c1ccc2c(c1)Cc1ccccc1-2 ?
Reply | 60

Ask | Could you tell me which inhibition at 1 µM is on file for Clc1ccc2c(c1)Cc1ccccc1S2 ?
Reply | 4

Ask | Could you tell me which inhibition at 1 µM is on file for CC(=O)c1ccc2c(c1)S(=O)(=O)c1ccccc1O2 ?
Reply | 52

Ask | Could you tell me which inhibition at 1 µM is on file for [O-][S+]1c2ccccc2Cc2cc(Br)ccc21 (configuration not stated) ?
Reply | 3

Ask | Could you tell me which inhibition at 1 µM is on file for [O-][S+]1c2ccccc2Cc2ccccc21 ?
Reply | 3

Ask | Could you tell me which inhibition at 1 µM is on file for Brc1ccc2c(c1)Cc1ccccc1S2 ?
Reply | 13

Ask | Could you tell me which inhibition at 1 µM is on file for C/N=C(\NC)c1ccc2c(c1)S(=O)(=O)c1ccccc1C2=O ?
Reply | 21

Ask | Could you tell me which inhibition at 1 µM is on file for c1ccc2c(c1)Cc1ccccc1S2 ?
Reply | 15

Ask | Could you tell me which inhibition at 1 µM is on file for CCC(C)NC(=O)c1ccc2c(c1)S(=O)(=O)c1ccccc1C2=O (configuration not stated) ?
Reply | 11

Ask | Could you tell me which inhibition at 1 µM is on file for CNC(=O)c1ccc2c(c1)S(=O)(=O)c1ccc(O)cc1C2=O ?
Reply | 64

Ask | Could you tell me which inhibition at 1 µM is on file for CC(C)(C)NC(=O)c1ccc2c(c1)S(=O)(=O)c1ccccc1C2=O ?
Reply | 18

* * *

pIC50 values for the compounds below.
# target-system: Amine oxidase [flavin-containing] A (Rattus norvegicus)
# Sequence (P21396 whole entry): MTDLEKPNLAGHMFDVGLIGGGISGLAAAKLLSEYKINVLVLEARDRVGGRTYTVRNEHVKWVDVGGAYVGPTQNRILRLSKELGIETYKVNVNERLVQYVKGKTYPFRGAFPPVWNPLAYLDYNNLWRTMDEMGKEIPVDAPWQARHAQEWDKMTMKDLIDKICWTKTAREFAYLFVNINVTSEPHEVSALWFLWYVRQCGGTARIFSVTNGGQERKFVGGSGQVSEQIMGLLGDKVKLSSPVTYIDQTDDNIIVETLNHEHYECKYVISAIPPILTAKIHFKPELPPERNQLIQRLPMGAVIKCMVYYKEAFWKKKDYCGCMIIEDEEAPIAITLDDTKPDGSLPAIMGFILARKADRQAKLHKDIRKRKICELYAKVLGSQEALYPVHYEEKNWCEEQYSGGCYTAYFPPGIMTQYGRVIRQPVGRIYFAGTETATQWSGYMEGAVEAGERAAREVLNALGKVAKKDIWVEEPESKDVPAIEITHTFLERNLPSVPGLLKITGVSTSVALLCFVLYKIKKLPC
# assay-explanation: Inhibition of Monoamine oxidase A (MAO A) in rat brain.
# Assay type: tissue-based
pIC50 (log units): -log10 of the concentration in mol/L.

Some compounds with recorded pIC50:
[[record]]
compound = "CC(C)c1ccc2c(c1)C(=O)c1ccc(C(N)=O)cc1S2(=O)=O"
measurement = 6.15

[[record]]
compound = "c1ccc2c(c1)Oc1cccnc1S2"
measurement = 7.00

[[record]]
compound = "CNC(=O)c1ccc2c(c1)S(=O)(=O)c1c(C)cc(C)cc1C2=O"
measurement = 7.70

[[record]]
compound = "CNC(=O)c1ccc2c(c1)S(=O)(=O)c1ccc(C(C)C)cc1C2=O"
measurement = 8.22

[[record]]
compound = "O=S1(=O)c2ccccc2Cc2cc(Cl)ccc21"
measurement = 5.70


Ask | Could you tell me which pIC50 is on file for N#Cc1ccc2c(c1)S(=O)(=O)c1ccccc1O2 ?
Reply | 6.70

Ask | Could you tell me which pIC50 is on file for CNC(=O)c1ccc2c(c1)S(=O)(=O)c1ccc(OCC(=O)OCCOC)cc1C2=O ?
Reply | 6.00

Ask | Could you tell me which pIC50 is on file for CNC(=O)c1ccc2c(c1)C(Cl)c1ccccc1C2Cl (stereo not drawn) ?
Reply | 6.89

Data credit: ChEMBL document CHEMBL1130348
